- tested system: T1, mouse LTβR extracellular domain fused with an Fc fragment at the C-terminus (mouse, UniProt P50284 31-223)
- T1 construct: extracellular domain; Bought; also called mLTβR; not shown: Fc fragment at the C-terminus
- T1 sequence (P50284 31-223): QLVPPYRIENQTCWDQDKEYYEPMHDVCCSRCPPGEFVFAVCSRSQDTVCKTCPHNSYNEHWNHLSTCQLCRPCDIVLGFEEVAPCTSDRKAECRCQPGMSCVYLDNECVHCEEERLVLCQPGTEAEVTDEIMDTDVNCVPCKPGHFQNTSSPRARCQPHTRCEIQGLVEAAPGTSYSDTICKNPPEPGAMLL
- protocol details: ELISA on coated target-Fc
measure: EC50 (µg/mL)
Give the quantity in µg/mL, number only.

LIGHT-26 (ligand, Printed mutations: S160H, L220S, E222Q; Soluble protein carries an N-terminal His tag) DGPAGSWEQLIQERRSHEVNPAAHLTGANSSLTGSGGPLLWETQLGLAFLRGLSYHDGALVVTKAGYYYIYSKVQLGGVGCPLGLAHTITHGLYKRTPRYPEELELLVSQQSPCGRATSSSRVWWDSSFLGGVVHLEAGEKVVVRVSDQRLVRLRDGTRSYFGAFMV = 0.0483
LIGHT-25 (ligand, Printed mutations: S160H, L220S; Soluble protein carries an N-terminal His tag) DGPAGSWEQLIQERRSHEVNPAAHLTGANSSLTGSGGPLLWETQLGLAFLRGLSYHDGALVVTKAGYYYIYSKVQLGGVGCPLGLAHTITHGLYKRTPRYPEELELLVSQQSPCGRATSSSRVWWDSSFLGGVVHLEAGEKVVVRVSDERLVRLRDGTRSYFGAFMV = 0.0323

// next item, EC50 requested
*Q* Fill in reported EC50 for this entry: LIGHT-23 (ligand, Printed mutations: S160G, L220S; Soluble protein carries an N-terminal His tag) DGPAGSWEQLIQERRSHEVNPAAHLTGANSSLTGSGGPLLWETQLGLAFLRGLSYHDGALVVTKAGYYYIYSKVQLGGVGCPLGLAGTITHGLYKRTPRYPEELELLVSQQSPCGRATSSSRVWWDSSFLGGVVHLEAGEKVVVRVSDERLVRLRDGTRSYFGAFMV
*A* 0.0916

// provenance: patent US20250361288A1
